# Target: T1, Glypican 3 Protein, Human, Recombinant (His Tag) (Sino Biological, Cat #10088-H08H) (human, UniProt P51654 25-559)
# T1 construct: Bought recombinant protein; also called Hu-GPC3 (10088-H08H); human GPC3; not shown: His tag
# T1 sequence (P51654 25-559 limits assumed): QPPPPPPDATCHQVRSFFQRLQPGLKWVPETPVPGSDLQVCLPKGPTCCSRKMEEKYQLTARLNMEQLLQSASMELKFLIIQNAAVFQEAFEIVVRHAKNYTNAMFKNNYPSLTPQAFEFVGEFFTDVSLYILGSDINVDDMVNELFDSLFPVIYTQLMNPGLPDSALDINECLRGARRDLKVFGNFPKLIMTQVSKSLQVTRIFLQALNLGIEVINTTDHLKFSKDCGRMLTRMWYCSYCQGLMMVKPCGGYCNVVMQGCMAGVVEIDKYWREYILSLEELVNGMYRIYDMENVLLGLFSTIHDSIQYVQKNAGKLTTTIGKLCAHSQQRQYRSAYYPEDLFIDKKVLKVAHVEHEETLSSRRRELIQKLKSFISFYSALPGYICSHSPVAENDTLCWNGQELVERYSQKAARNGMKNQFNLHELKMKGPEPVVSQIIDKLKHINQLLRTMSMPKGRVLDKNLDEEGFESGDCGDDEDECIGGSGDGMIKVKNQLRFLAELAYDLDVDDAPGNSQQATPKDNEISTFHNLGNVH
# Assay details: Octet QKe BLI, IgG on AHC probe, GPC3 (Sino Biological) in solution, 1:1 fit
Reported kon values for a set of binders
Reported metric: kon (M⁻¹ s⁻¹)

- P17-16A11 IgG (antibody, V domains shown, IgG) VH: EVQLVESGGGLVQPGGSLRLSCAASGFTFDRYAMSWVRQAPGKGLEWVSSLSASGSGTYYADSVKGRFTISRDNSKNTLYLQMNSLRAEDTAVYYCAKEYDFSYGWMHYYYGMDVWGQGTTVTVSS VL: QSVLTQPPSVSGAPGQRVTISCTGSSSGYDVHWYQQLPGRAPKLLIYGSNNRPSGVPDRFSGSNSGTSASLAITGLQAEDEADYYCQSYDSSLNAIFGGGTKLTVL: 182000
- P17-11F4 IgG (antibody, V domains shown, IgG) VH: EVQLVESGGGLVQPGGSLRLSCAASGFTFKDYAMSWVRQAPGKGLEWVSALSGSGGATYYADSVKGRFTISRDNSKNTLYLQMNSLRAEDTAVYYCAKEMDFRYGWMHYYYGMDVWGQGTTVTVSS VL: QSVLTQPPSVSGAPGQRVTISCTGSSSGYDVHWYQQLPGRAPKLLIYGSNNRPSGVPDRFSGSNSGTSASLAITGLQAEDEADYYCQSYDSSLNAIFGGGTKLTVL: 188000
- P17-16E6 IgG (antibody, V domains shown, IgG) VH: EVQLVESGGGLVQPGGSLRLSCAASGFTFRKYAMSWVRQAPGKGLEWVSSLSASGSATYYADSVKGRFTISRDNSKNTLYLQMNSLRAEDTAVYYCAKEADYSMGWMHYYYGMDVWGQGTTVTVSS VL: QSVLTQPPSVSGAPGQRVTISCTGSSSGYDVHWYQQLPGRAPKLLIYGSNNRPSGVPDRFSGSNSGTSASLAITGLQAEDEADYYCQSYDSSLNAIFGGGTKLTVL: 208000
- P17-16A1 IgG (antibody, V domains shown, IgG) VH: EVQLVESGGGLVQPGGSLRLSCAASGFTFKRYAMSWVRQAPGKGLEWVSSVSSSGTGTYYADSVKGRFTISRDNSKNTLYLQMNSLRAEDTAVYYCAKEYDYGLGWMHYYYGMDVWGQGTTVTVSS VL: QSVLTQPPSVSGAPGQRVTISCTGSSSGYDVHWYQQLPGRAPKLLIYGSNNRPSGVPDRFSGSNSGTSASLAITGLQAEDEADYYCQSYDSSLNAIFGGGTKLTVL: 215000

The reported numbers originate from patent US20260132214A1.
